meta.source: the supplement of paper PMC9112550

# System: Escherichia coli TOP10
# assay.name: shrunken log2 fold change of peptide-encoding DNA abundance (4.5 h post-induction vs induction); higher = less antimicrobial activity (less host growth inhibition)
# condition.info: time post-induction: 4.5 h; library: site-saturation at positions 5, 18, 19, 20
parameter: shrunken log2 fold change
No unit in the answer, please; the number alone is enough.

Challenge: Write down the reported shrunken log2 fold change of RRIRQRPPRLPRPRPRPGFNPRP , test system: Escherichia coli TOP10.
Response given: -0.119

Challenge: Proceed to RRIRVRPPRLPRPRPRPIQIPRP
Response given: -1.33

Challenge: Proceed to RRIRKRPPRLPRPRPRPDMDPRP
Response given: 0.0224

Challenge: Proceed to RRIRGRPPRLPRPRPRPQGTPRP
Response given: -0.0716

Challenge: Proceed to RRIRSRPPRLPRPRPRPGVDPRP
Response given: 0.334

Challenge: Proceed to RRIRNRPPRLPRPRPRPMLYPRP
Response given: -0.318

Challenge: Proceed to RRIRRRPPRLPRPRPRPLWAPRP
Response given: 0.501

Challenge: Proceed to RRIRDRPPRLPRPRPRPGFVPRP
Response given: 0.0977

Challenge: Proceed to RRIRKRPPRLPRPRPRPENNPRP
Response given: 0.179

Challenge: Proceed to RRIRDRPPRLPRPRPRPVSMPRP
Response given: -0.0171

Challenge: Proceed to RRIRPRPPRLPRPRPRPLVGPRP
Response given: 0.408

Challenge: Proceed to RRIRKRPPRLPRPRPRPKTYPRP
Response given: -0.156

Challenge: Proceed to RRIRCRPPRLPRPRPRPPKMPRP
Response given: 0.222

Challenge: Proceed to RRIRERPPRLPRPRPRPYRRPRP
Response given: -0.0227

Challenge: Proceed to RRIRMRPPRLPRPRPRPELCPRP
Response given: 3.34

----------
# Tested on: Escherichia coli TOP10
# assay.name: shrunken log2 fold change of peptide-encoding DNA abundance (4.5 h post-induction vs induction); higher = less antimicrobial activity (less host growth inhibition)
# condition.info: time post-induction: 4.5 h; library: site-saturation at positions 5, 18, 19, 20
parameter: shrunken log2 fold change
No unit in the answer, please; the number alone is enough.

Challenge: Any idea what its shrunken log2 fold change is? The sequence is RRIRYRPPRLPRPRPRPMKWPRP
Response given: 0.00957

Challenge: Proceed to RRIRTRPPRLPRPRPRPFQIPRP
Response given: -0.103

Challenge: Proceed to RRIRLRPPRLPRPRPRPLKDPRP
Response given: -0.0949

Challenge: Proceed to RRIRLRPPRLPRPRPRPESNPRP
Response given: 0.0589

Challenge: Proceed to RRIRPRPPRLPRPRPRPNNRPRP
Response given: -0.349

Challenge: Proceed to RRIRGRPPRLPRPRPRPFEKPRP
Response given: 0.22

Challenge: Proceed to RRIRERPPRLPRPRPRPDHIPRP
Response given: -0.537

Challenge: Proceed to RRIRNRPPRLPRPRPRPHKNPRP
Response given: -0.237

Challenge: Proceed to RRIRWRPPRLPRPRPRPPGNPRP
Response given: 0.687

Challenge: Proceed to RRIRCRPPRLPRPRPRPAYLPRP
Response given: -0.247

Challenge: Proceed to RRIRYRPPRLPRPRPRPTCAPRP
Response given: -0.0853

Challenge: Proceed to RRIRDRPPRLPRPRPRPGQCPRP
Response given: 0.131

Challenge: Proceed to RRIRARPPRLPRPRPRPATLPRP
Response given: 0.34

Challenge: Proceed to RRIRMRPPRLPRPRPRPVYNPRP
Response given: -0.17

Challenge: Proceed to RRIRQRPPRLPRPRPRPTLPPRP
Response given: 1.69

----------
# Test system: Escherichia coli TOP10
# assay.name: shrunken log2 fold change of peptide-encoding DNA abundance (4.5 h post-induction vs induction); higher = less antimicrobial activity (less host growth inhibition)
# condition.info: time post-induction: 4.5 h; library: site-saturation at positions 5, 18, 19, 20
Each entry falls into one class according to its shrunken log2 fold change; the ranges are L = under -0.09, M = from -0.09 up to 0.2, H = 0.2 and over

Challenge: Into which category would you place RRIRVRPPRLPRPRPRPSMEPRP ?
Response given: L

Challenge: Proceed to RRIRARPPRLPRPRPRPMMQPRP
Response given: M

Challenge: Proceed to RRIRDRPPRLPRPRPRPFIWPRP
Response given: H

Challenge: Proceed to RRIRYRPPRLPRPRPRPSCKPRP
Response given: L

Challenge: Proceed to RRIRTRPPRLPRPRPRPDGEPRP
Response given: M

Challenge: Proceed to RRIRCRPPRLPRPRPRPEPPPRP
Response given: H

Challenge: Proceed to RRIRSRPPRLPRPRPRPRLEPRP
Response given: H

Challenge: Proceed to RRIRARPPRLPRPRPRPLKPPRP
Response given: H

Challenge: Proceed to RRIRNRPPRLPRPRPRPEEVPRP
Response given: M

Challenge: Proceed to RRIRYRPPRLPRPRPRPQVTPRP
Response given: M

Challenge: Proceed to RRIRARPPRLPRPRPRPKWPPRP
Response given: H

Challenge: Proceed to RRIRLRPPRLPRPRPRPTGYPRP
Response given: L

Challenge: Proceed to RRIRARPPRLPRPRPRPTHHPRP
Response given: H

Challenge: Proceed to RRIRNRPPRLPRPRPRPAPQPRP
Response given: M

Challenge: Proceed to RRIRMRPPRLPRPRPRPRYDPRP
Response given: M

Challenge: Proceed to RRIRARPPRLPRPRPRPMQYPRP
Response given: M

Challenge: Proceed to RRIRWRPPRLPRPRPRPKFPPRP
Response given: H

Challenge: Proceed to RRIRKRPPRLPRPRPRPNNHPRP
Response given: L

Challenge: Proceed to RRIRTRPPRLPRPRPRPDMDPRP
Response given: M

Challenge: Proceed to RRIRCRPPRLPRPRPRPTIVPRP
Response given: L

Challenge: Proceed to RRIRKRPPRLPRPRPRPNVEPRP
Response given: M

Challenge: Proceed to RRIRSRPPRLPRPRPRPKGQPRP
Response given: M

Challenge: Proceed to RRIRFRPPRLPRPRPRPSIDPRP
Response given: L

Challenge: Proceed to RRIRIRPPRLPRPRPRPQVMPRP
Response given: L

Challenge: Proceed to RRIRLRPPRLPRPRPRPDDQPRP
Response given: M

Challenge: Proceed to RRIRMRPPRLPRPRPRPCHVPRP
Response given: M

Challenge: Proceed to RRIRHRPPRLPRPRPRPHKKPRP
Response given: M

Challenge: Proceed to RRIRPRPPRLPRPRPRPGYEPRP
Response given: L

Challenge: Proceed to RRIRARPPRLPRPRPRPSNYPRP
Response given: L

----------
# Tested on: Escherichia coli TOP10
# assay.name: shrunken log2 fold change of peptide-encoding DNA abundance (4.5 h post-induction vs induction); higher = less antimicrobial activity (less host growth inhibition)
# condition.info: time post-induction: 4.5 h; library: site-saturation at positions 5, 18, 19, 20
Each entry falls into one class according to its shrunken log2 fold change; the ranges are 0: < -0.2; 1: ≥ -0.2 and < 0.2; 2: ≥ 0.2

Challenge: Into which category would you place RRIRERPPRLPRPRPRPAYKPRP ?
Response given: 0

Challenge: Proceed to RRIRQRPPRLPRPRPRPRTRPRP
Response given: 2

Challenge: Proceed to RRIRQRPPRLPRPRPRPMLYPRP
Response given: 0

Challenge: Proceed to RRIRLRPPRLPRPRPRPLVLPRP
Response given: 0

Challenge: Proceed to RRIRRRPPRLPRPRPRPVEYPRP
Response given: 1

Challenge: Proceed to RRIRFRPPRLPRPRPRPPVCPRP
Response given: 1

Challenge: Proceed to RRIRSRPPRLPRPRPRPPIKPRP
Response given: 0

Challenge: Proceed to RRIRQRPPRLPRPRPRPLEDPRP
Response given: 1

Challenge: Proceed to RRIRARPPRLPRPRPRPVCFPRP
Response given: 2

Challenge: Proceed to RRIRFRPPRLPRPRPRPQGCPRP
Response given: 1

Challenge: Proceed to RRIRCRPPRLPRPRPRPPREPRP
Response given: 2

Challenge: Proceed to RRIRLRPPRLPRPRPRPENTPRP
Response given: 0

Challenge: Proceed to RRIRGRPPRLPRPRPRPWKFPRP
Response given: 0

Challenge: Proceed to RRIRKRPPRLPRPRPRPKLFPRP
Response given: 2

Challenge: Proceed to RRIRCRPPRLPRPRPRPKMSPRP
Response given: 1

----------
Kindly supply the reported shrunken log2 fold change values for the records listed here.
# Test system: Escherichia coli TOP10
# assay.name: shrunken log2 fold change of peptide-encoding DNA abundance (4.5 h post-induction vs induction); higher = less antimicrobial activity (less host growth inhibition)
# condition.info: time post-induction: 4.5 h; library: site-saturation at positions 5, 18, 19, 20
No unit in the answer, please; the number alone is enough.

Challenge: Write down the reported shrunken log2 fold change of RRIRGRPPRLPRPRPRPCDNPRP , test system: Escherichia coli TOP10.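 Also: peptides expressed intracellularly from a pBAD plasmid library in pooled LB shake-flask culture, induced with 0.3% L-arabinose, DNA abundance read by NGS, three biological replicates, DESeq2 with apeglm shrinkage.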
Response given: 0.0785

Challenge: Proceed to RRIRRRPPRLPRPRPRPCLGPRP
Response given: -0.0846

Challenge: Proceed to RRIRIRPPRLPRPRPRPNVGPRP
Response given: 0.011

Challenge: Proceed to RRIRWRPPRLPRPRPRPITRPRP
Response given: -0.0637

Challenge: Proceed to RRIRQRPPRLPRPRPRPHSVPRP
Response given: -0.0178

Challenge: Proceed to RRIRARPPRLPRPRPRPYRKPRP
Response given: -0.502

Challenge: Proceed to RRIRHRPPRLPRPRPRPEMEPRP
Response given: -0.108

Challenge: Proceed to RRIRWRPPRLPRPRPRPHPDPRP
Response given: 0.0175

Challenge: Proceed to RRIRERPPRLPRPRPRPKFAPRP
Response given: -0.139

Challenge: Proceed to RRIRTRPPRLPRPRPRPWCHPRP
Response given: -0.732

Challenge: Proceed to RRIRMRPPRLPRPRPRPQNVPRP
Response given: -0.0183

Challenge: Proceed to RRIRFRPPRLPRPRPRPKHRPRP
Response given: -0.094

Challenge: Proceed to RRIRYRPPRLPRPRPRPLFQPRP
Response given: -0.76

Challenge: Proceed to RRIRDRPPRLPRPRPRPFVNPRP
Response given: -0.254

Challenge: Proceed to RRIRNRPPRLPRPRPRPTKWPRP
Response given: -0.2

Challenge: Proceed to RRIRDRPPRLPRPRPRPISKPRP
Response given: 0.002

Challenge: Proceed to RRIRVRPPRLPRPRPRPALVPRP
Response given: 0.464

Challenge: Proceed to RRIRKRPPRLPRPRPRPLGFPRP
Response given: 0.872

Challenge: Proceed to RRIRVRPPRLPRPRPRPFPCPRP
Response given: -0.00113

Challenge: Proceed to RRIRFRPPRLPRPRPRPTHSPRP
Response given: 0.207

Challenge: Proceed to RRIRWRPPRLPRPRPRPMIVPRP
Response given: 2.28

Challenge: Proceed to RRIRIRPPRLPRPRPRPKTTPRP
Response given: -0.301

Challenge: Proceed to RRIRVRPPRLPRPRPRPNPCPRP
Response given: -0.461

Challenge: Proceed to RRIRSRPPRLPRPRPRPYHAPRP
Response given: -8.39e-05

Challenge: Proceed to RRIRNRPPRLPRPRPRPCETPRP
Response given: -0.0224

Challenge: Proceed to RRIRHRPPRLPRPRPRPTTDPRP
Response given: -0.136

Challenge: Proceed to RRIRHRPPRLPRPRPRPLQDPRP
Response given: -0.0821

Challenge: Proceed to RRIRTRPPRLPRPRPRPNICPRP
Response given: 0.00449

Challenge: Proceed to RRIRPRPPRLPRPRPRPMFLPRP
Response given: -0.269

Challenge: Proceed to RRIRSRPPRLPRPRPRPNPMPRP
Response given: -0.111

Challenge: Proceed to RRIRYRPPRLPRPRPRPVNMPRP
Response given: -0.47

Challenge: Proceed to RRIRMRPPRLPRPRPRPKWKPRP
Response given: 0.195
